Origin of values: patent US8268885B2

- ASSAY INFO: toxicity assay using MT4-CMV-EGFP cells (reduced expression of GFP reporter)
- Format: cell-based
- MEASUREMENT SETUP: human
Reported CC50 values for a set of compounds
READOUT TYPE: CC50 (µM)

| SMILES STR | UNIT SYMBOL | QUALIFYING SIGN | TEST VALUE |
| --- | --- | --- | --- |
| COc1ccc(S(=O)(=O)Nc2ccc(Oc3ccc(NC(=O)Cc4ccccc4)cc3)cc2)cc1 | µM | > | 100 |
| COc1ccc(S(=O)(=O)Nc2ccc(Oc3ccc(NC(=O)COC(C)=O)cc3)cc2)cc1 | µM | > | 27.7 |
| O=C(COc1ccccc1)Nc1ccc(Oc2ccc(NC(=O)c3cccc([N+](=O)[O-])c3)cc2)cc1 | µM | = | 3.41 |
| COc1ccc(S(=O)(=O)Nc2ccc(Oc3ccc(NC(=O)c4ccco4)cc3)cc2)cc1 | µM | = | 22.4 |

====

- ASSAY INFO: toxicity assay using MT4-CMV-EGFP cells (reduced expression of GFP reporter)
- Format: cell-based
- MEASUREMENT SETUP: human

| SMILES STR | QUALIFYING SIGN | CC50 [µM] |
| --- | --- | --- |
| COc1ccc(S(=O)(=O)Nc2ccc(Oc3ccc(NC(=O)c4cccc(OC)c4)cc3)cc2)cc1 | = | 5.87 |
| N#Cc1ccc(C(=O)Nc2ccc(Oc3cccc4cnccc34)cc2)cc1 | > | 100 |
| O=C(Nc1ccc(Oc2ccc(NC(=O)c3cccc([N+](=O)[O-])c3)cc2)cc1)c1cccc([N+](=O)[O-])c1 | = | 54.2 |
| O=C(CNCCN1CCCC1)Nc1ccc(Oc2cccc3c2N(C(=O)CNCCN2CCCC2)CCC3)cc1 | > | 100 |
| CC(=O)OCC(=O)Nc1ccc(Oc2ccc(NC(=O)COc3ccccc3)cc2)cc1 | = | 23.6 |
| O=C(COc1ccccc1)Nc1ccc(Oc2cccc3c2N(C(=O)COc2ccccc2)CCC3)cc1 | > | 32 |
| CCCCc1ccc(C(=O)Nc2ccc(Oc3cccc4c3N(C(=O)c3ccc(CCCC)cc3)CCC4)cc2)cc1 | > | 100 |
| O=C(COc1ccccc1)Nc1ccc(Oc2ccc(NC(=O)c3ccc4c(c3)OCO4)cc2)cc1 | = | 19.9 |

====

- ASSAY INFO: toxicity assay using MT4-CMV-EGFP cells (reduced expression of GFP reporter)
- Format: cell-based
- MEASUREMENT SETUP: human
READOUT TYPE: CC50

| MOLECULE | TEST VALUE |
| --- | --- |
| COc1ccc(S(=O)(=O)Nc2ccc(Oc3ccc([N+](=O)[O-])cc3)cc2)cc1 [Compound 29] | 61.6 µM |
| O=C(COc1ccccc1)Nc1ccc(Oc2ccc(NC(=O)Cc3ccccc3)cc2)cc1 [Compound 33] | 30.2 µM |
| COc1ccc(S(=O)(=O)Nc2ccc(Oc3ccc(NC(=O)c4cccc([N+](=O)[O-])c4)cc3)cc2)cc1 [Compound 37] | > 32 µM |
| O=C(CN[C@@H](Cc1ccccc1)C(=O)O)Nc1ccc(Oc2cccc(C(=O)O)c2)cc1C(F)(F)F [Compound 8] | > 100 µM |
| O=C(Nc1ccc(Oc2cccc3cnccc23)cc1)c1ccc([N+](=O)[O-])cc1 [Compound 4] | > 100 µM |
| CCCCc1ccc(C(=O)NCc2cccc(Oc3ccc(NC(=O)c4ccc(CCCC)cc4)cc3)c2)cc1 [Compound 44] | > 32 µM |
| O=C(COc1ccccc1)Nc1ccc(Oc2ccc([N+](=O)[O-])cc2)cc1 [Compound 24] | > 100 µM |
| CN1CCN(CC(=O)Nc2ccc(Oc3ccc(NC(=O)CN4CCN(C)CC4)cc3)cc2)CC1 [Compound 16] | > 100 µM |
| O=C(Cc1ccccc1)Nc1ccc(Oc2ccc(NC(=O)Cc3ccccc3)cc2)cc1 [Compound 10] | > 32 µM |
| COc1cccc(C(=O)Nc2ccc(Oc3ccc(NC(=O)c4cccc(OC)c4)cc3)cc2)c1 [Compound 11] | > 32 µM |
| COc1cccc(C(=O)Nc2ccc(Oc3ccc(NC(=O)COc4ccccc4)cc3)cc2)c1 [Compound 30] | 3.85 µM |
| O=C(COc1ccccc1)NCc1cccc(Oc2ccc(NC(=O)COc3ccccc3)cc2)c1 [Compound 42] | 46.5 µM |
| O=C(COCc1ccccc1)NCc1cccc(Oc2ccc(NC(=O)COCc3ccccc3)cc2)c1 [Compound 43] | > 32 µM |
| O=C(Nc1ccc(Oc2cccc3c2N(C(=O)c2ccco2)CCC3)cc1)c1ccco1 [Compound 23] | 34.2 µM |
| O=C(O)c1ccc(S(=O)(=O)Nc2ccc(Oc3cccc4cnccc34)cc2)cc1 [Compound 6] | > 100 µM |
| O=C(COc1ccccc1)Nc1ccc(Oc2ccc(NC(=O)c3ccco3)cc2)cc1 [Compound 34] | 83.2 µM |
